molecular target: Metabotropic glutamate receptor 5 (Rattus norvegicus, UniProt P31424); test: Positive allosteric modulation of rat mGluR5 stably expressed in HEK293 cells assessed as Ca2+ flux by FLIPR assay; format: functional, cell-based
Sequence (P31424 whole entry): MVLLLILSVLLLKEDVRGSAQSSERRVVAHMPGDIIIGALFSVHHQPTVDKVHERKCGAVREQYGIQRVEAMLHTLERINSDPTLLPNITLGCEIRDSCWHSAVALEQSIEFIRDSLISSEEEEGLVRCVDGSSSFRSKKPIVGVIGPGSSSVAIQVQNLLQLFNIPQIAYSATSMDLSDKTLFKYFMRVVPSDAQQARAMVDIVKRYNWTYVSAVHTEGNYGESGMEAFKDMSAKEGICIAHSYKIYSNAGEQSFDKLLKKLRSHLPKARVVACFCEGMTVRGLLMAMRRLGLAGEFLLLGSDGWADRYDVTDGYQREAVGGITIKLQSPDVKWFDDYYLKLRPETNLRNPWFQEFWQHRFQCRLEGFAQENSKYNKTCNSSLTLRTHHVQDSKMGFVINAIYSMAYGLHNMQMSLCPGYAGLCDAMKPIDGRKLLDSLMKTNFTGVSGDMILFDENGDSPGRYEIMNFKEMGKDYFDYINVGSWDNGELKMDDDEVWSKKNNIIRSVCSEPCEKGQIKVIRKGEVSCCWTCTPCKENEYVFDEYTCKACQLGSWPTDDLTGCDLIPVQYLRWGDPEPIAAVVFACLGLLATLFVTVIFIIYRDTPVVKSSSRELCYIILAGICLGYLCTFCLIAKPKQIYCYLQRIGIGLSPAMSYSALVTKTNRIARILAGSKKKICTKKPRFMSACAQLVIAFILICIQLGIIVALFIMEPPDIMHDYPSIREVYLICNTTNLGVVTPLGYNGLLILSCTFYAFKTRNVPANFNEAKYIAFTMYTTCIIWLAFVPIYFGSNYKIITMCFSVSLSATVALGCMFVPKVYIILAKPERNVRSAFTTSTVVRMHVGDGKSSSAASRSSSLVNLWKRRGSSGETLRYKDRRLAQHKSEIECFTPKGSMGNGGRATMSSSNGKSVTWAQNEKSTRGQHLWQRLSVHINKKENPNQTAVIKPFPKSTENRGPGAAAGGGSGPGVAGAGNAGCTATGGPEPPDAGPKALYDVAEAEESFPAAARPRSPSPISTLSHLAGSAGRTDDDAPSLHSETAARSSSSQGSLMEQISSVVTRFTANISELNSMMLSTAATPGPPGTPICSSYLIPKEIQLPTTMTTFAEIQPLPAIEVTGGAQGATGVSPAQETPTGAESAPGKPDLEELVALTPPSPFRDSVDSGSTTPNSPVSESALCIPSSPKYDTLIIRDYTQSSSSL
outcome_measure: EC50 (nM)
All answers are understood in nM, so give the number only.

Exam item: Report EC50 for `O=C(c1ccc(F)cc1)N1CCC[C@H](c2nc(-c3ccc(F)cc3)no2)C1` tested on Metabotropic glutamate receptor 5 (Rattus norvegicus, UniProt P31424).
Marked response: 55

----------
biological target: Metabotropic glutamate receptor 5 (Rattus norvegicus, UniProt P31424); assay: Positive allosteric modulation of rat mGluR5 stably expressed in HEK293 cells assessed as increase in intracellular calcium level by Fluo-4AM dye-based fluorescence assay; type: functional, cell-based; conditions: read-out: EC50
So I've got a bunch of compounds here, and I need their pEC50 values.
The read-out pEC50 is expressed as -log10 of concentration in moles per litre.

Exam item: // query pEC50 value for entry `C[C@@H](NC(=O)c1ccc(C#Cc2ccncc2)cn1)C(C)(C)O`
Marked response: 7.37

Exam item: What do you get for `Cc1ccccc1C#Cc1ccc(C(=O)N[C@H](C)C(C)(C)O)nc1` ?
Marked response: 6.66

Exam item: Do the same for `C[C@@H](NC(=O)c1ccc(C#Cc2cccc(F)c2)cn1)C(C)(C)F` please
Marked response: 8.28

Exam item: Please do the same for `CC1(NC(=O)c2ccc(C#Cc3ccncc3)cn2)COC1` as well.
Marked response: 6.16

Exam item: Check `C[C@@H](NC(=O)c1ccc(C#Cc2cccc(F)c2)nc1)C(C)(C)O` too.
Marked response: 7.10

Exam item: Another compound: `C[C@@H](NC(=O)c1ccc(C#Cc2ccccn2)cn1)C(C)(C)F`
Marked response: 7.65

Exam item: Next entry: `Cc1cc(C#Cc2cccc(F)c2)cnc1C(=O)N[C@H](C)C(C)(C)O`
Marked response: 6.98

Exam item: Now consider `C[C@@H](NC(=O)c1nc(C#Cc2cccc(F)c2)cs1)C(C)(C)O` and answer again.
Marked response: 7.47

Exam item: Another compound: `C[C@@H](NC(=O)c1ccc(C#Cc2cccc(F)c2)cn1)C(C)(C)C`
Marked response: 7.75

Exam item: Same question, `CC(C)(CO)NC(=O)c1ccc(C#Cc2cccc(F)c2)cn1` this time
Marked response: 8.10

Exam item: Please answer likewise for `C[C@@H](NC(=O)c1cnc(C#Cc2cccc(F)c2)nc1)C(C)(C)O`
Marked response: 6.91

----------
assay: Plasma protein binding in rat; type: ADME, cell-free; conditions: read-out: PPB
outcome_measure: fraction unbound

Exam item: For the compound `O=C(NC1CCC1)c1ccc(C#Cc2cccc(F)c2)cn1` , what fraction unbound is on record?
Marked response: < 0.01

----------
biological target: UniProtKB P10635
Sequence (P10635 whole entry): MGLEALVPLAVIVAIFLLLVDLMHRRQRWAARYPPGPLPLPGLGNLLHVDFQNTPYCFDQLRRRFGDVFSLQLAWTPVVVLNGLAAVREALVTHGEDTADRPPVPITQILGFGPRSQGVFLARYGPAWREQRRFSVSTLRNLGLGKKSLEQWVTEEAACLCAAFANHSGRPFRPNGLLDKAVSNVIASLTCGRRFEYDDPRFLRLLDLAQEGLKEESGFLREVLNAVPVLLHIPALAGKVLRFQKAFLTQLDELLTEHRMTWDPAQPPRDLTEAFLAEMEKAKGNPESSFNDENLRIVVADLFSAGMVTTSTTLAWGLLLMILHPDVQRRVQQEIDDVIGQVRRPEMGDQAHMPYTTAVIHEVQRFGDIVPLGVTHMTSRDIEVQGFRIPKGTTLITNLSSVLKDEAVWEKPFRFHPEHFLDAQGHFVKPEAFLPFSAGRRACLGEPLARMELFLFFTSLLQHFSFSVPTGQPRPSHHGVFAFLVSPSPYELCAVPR
pIC50: −log10 of the molar value.
outcome_measure: pIC50

Exam item: Look at this compound and give its reported pIC50. `CC1(NC(=O)c2ccc(C#Cc3cccc(F)c3)cn2)COC1`
Marked response: < 4.52

----------
Hi there, I'd appreciate the recorded pEC50 for every entry that follows.
target: Metabotropic glutamate receptor 5 (Rattus norvegicus, UniProt P31424); experiment: Positive allosteric modulation of rat mGluR5 stably expressed in HEK293 cells assessed as increase in intracellular calcium level by Fluo-4AM dye-based fluorescence assay; assay type: functional, cell-based; conditions: read-out: EC50
pEC50 is a log-scale quantity: -log10 of the concentration expressed in molar.

Exam item: // pEC50 lookup, key: `C[C@@H](NC(=O)c1ncc(C#Cc2cccc(F)c2)cn1)C(C)(C)O`
Marked response: 7.32

Exam item: Param item: `C[C@@H](NC(=O)c1ccc(C#Cc2cccc(F)n2)cn1)C(C)(C)O`
Marked response: 7.87

Exam item: Same question, `C[C@@H](NC(=O)c1ccc(C#Cc2cccc(F)c2)nn1)C(C)(C)O` this time
Marked response: 7.66

Exam item: Here is the next molecule: `C[C@@H](NC(=O)c1ccc(C#Cc2ccccn2)cn1)C(C)(C)C`
Marked response: 7.20

Exam item: Also `CC(C)[C@@H](C)NC(=O)c1ccc(C#Cc2ccccn2)cn1` ?
Marked response: 7.10
